System: SK-OV-3 ovarian
experiment.summary: NCI tumour cell line growth inhibition, 48 h
measurement.kind: TGI

>>> result("CCNCCS(=O)(=O)NC[C@@]1(c2ccccc2)SC(NC(=O)C(C)(C)C)=NN1C(=O)C(C)(C)C")
"> 100 µM"
>>> result("CN1C(=O)[C@@H](CC2CCCC2)N(C2CCCC2)c2nc(Nc3cc(Cl)c(O)c(Cl)c3)ncc21")
"75.9 µM"
>>> result("CCOC(=O)C1(C)C2=CC=C(O2)C(C)(C)C2=CC=C(O2)C(C)(C)C2=CC=C(O2)C(C)(C)C2=CC=C1O2")
"> 100 µM"

###

Property: TGI; scope: individual compounds
System: HL-60(TB) leukemia
experiment.summary: NCI tumour cell line growth inhibition, 48 h
measurement.kind: TGI

>>> result("COC(=O)c1ccccc1/C=C1\\Cc2ccc3c(c2C1=O)CCC3")
"> 100 µM"
>>> result("CCCCN(CCCC)CC(C(=O)Nc1ccc([N+](=O)[O-])cc1[N+](=O)[O-])/C(C)=N\\NC(=O)c1ccncc1 (stereo unspecified)")
"> 100 µM"
>>> result("C/C(=C\\CNc1ncnc2c1ncn2C1CCCCO1)COP(=O)(O)O (stereo unspecified)")
"> 100 µM"
>>> result("O=C(CC(O)(C(F)(F)F)C(F)(F)F)c1cccs1")
"> 10 µM"
>>> result("CC(=O)CCC[C@@H](C)[C@@H]1O[C@H]([C@@]2(C)CCC(=O)O2)CC2[C@H]1OC(=O)C21CC1 (stereo partly specified)")
"> 100 µM"
>>> result("COC(=O)C1=C(N)C2=C(N)Oc3ccccc3C2CC1=C(C#N)C#N (stereo unspecified)")
"> 100 µM"

###

Tested on: TK-10 renal
experiment.summary: NCI tumour cell line growth inhibition, 48 h
Below: a set of entries, each annotated with reported GI50.
measurement.kind: GI50

>>> result("CC(C)(Oc1cccc(N2CCC[C@@H](C(=O)N(Cc3ccc(-c4cn[nH]c4)cc3)C3CC3)C2)c1)C(=O)N1CCNCC1")
"14.8 µM"
>>> result("Cc1ccc2c(-c3ccnc(Nc4cccc(C(F)(F)F)c4)n3)c(-c3ccccc3)nn2n1")
"3.57 µM"
>>> result("Cn1ccc(S(=O)(=O)N2CCC[C@H](Nc3nccc(-c4c(-c5cccc(O)c5)nc5occn45)n3)C2)n1")
"14.3 µM"

###

Below is a list of entries, each paired with its recorded TGI value.
Tested on: MDA-MB-231 breast
experiment.summary: NCI tumour cell line growth inhibition, 48 h
measurement.kind: TGI

>>> result("CC(O)C1(O)C(O)CC(OC2c3cc4c(c(O)c3[C@@H]3C[C@@]2(C)OC32C=c3cc[nH]c3=N2)C(=O)c2cccc(O)c2C4=O)OC1C (stereo partly specified)")
"3.89 µM"
>>> result("CN(C)/C=N/c1cc(=O)n(C)c(=O)n1C")
"> 100 µM"
>>> result("CC(C)=NC(C(=O)O)C(C)(C)S (stereo unspecified)")
"> 100 µM"
>>> result("CC(=O)O[C@H]1[C@@H](OC2CCCC2(c2ccccc2)c2ccccc2)O[N+]([O-])=C[C@@H]1c1ccccc1 (stereo partly specified)")
"40.9 µM"
>>> result("N#Cc1c(-c2ccccc2)nc(SCC(O)CN2CCOCC2)nc1N1CCOCC1 (stereo unspecified)")
"> 100 µM"
>>> result("Cc1ccc(NC(=O)CC(=O)N2N=C(N(c3ccccc3)c3ccccc3)CC2c2ccccc2)cc1 (stereo unspecified)")
"> 100 µM"
>>> result("C#CCC(O)c1ccc(OC)c(OCc2ccccc2)c1 (stereo unspecified)")
"> 100 µM"
>>> result("CN(C)Cc1ccc(O)c(CN(C)C)n1")
"> 100 µM"
>>> result("COC(=O)C(Cc1c(-c2[nH]c3ccccc3c2CC(NC(C)=O)C(=O)OC)[nH]c2ccccc12)NC(C)=O (stereo unspecified)")
"> 100 µM"
>>> result("CC(=O)CCC[C@@H](C)[C@@H]1O[C@H]([C@@]2(C)CCC(=O)O2)CC2[C@H]1OC(=O)C21CC1 (stereo partly specified)")
"> 100 µM"
>>> result("CSc1ccccc1NC1=NCCO1")
"> 100 µM"

Entry source: PubChem BioAssay (NCI)
